system-under-test: T1, SARS-CoV-2 Spike Glycoprotein S1 (subunit 1) (SARS-CoV-2, UniProt P0DTC2 16-685)
T1 construct: also called S1 Monomer; SARS-CoV-2 S1
method-summary: column DC/S1 (format not explained)
pKd: −log10 of the molar value.
value-type: pKd

binder="1-28 (antibody, V domains shown) VH: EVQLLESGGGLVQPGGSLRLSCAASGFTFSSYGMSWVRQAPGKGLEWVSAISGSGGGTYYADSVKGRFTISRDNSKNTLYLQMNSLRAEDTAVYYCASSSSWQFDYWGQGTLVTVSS VL: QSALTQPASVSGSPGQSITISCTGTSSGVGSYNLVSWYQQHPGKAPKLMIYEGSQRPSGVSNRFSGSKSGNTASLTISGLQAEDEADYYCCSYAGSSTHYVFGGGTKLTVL" value_type=pKd endpoint_result=6.28
binder="1-24 (antibody, V domains shown) VH: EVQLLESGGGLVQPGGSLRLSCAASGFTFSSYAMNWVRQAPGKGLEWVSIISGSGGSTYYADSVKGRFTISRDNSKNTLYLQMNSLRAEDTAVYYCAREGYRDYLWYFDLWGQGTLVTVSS VL: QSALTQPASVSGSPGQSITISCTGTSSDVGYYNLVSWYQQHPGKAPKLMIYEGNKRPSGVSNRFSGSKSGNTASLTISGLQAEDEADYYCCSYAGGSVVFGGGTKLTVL" value_type=pKd endpoint_result=5.69
binder="1-32 (antibody, V domains shown) VH: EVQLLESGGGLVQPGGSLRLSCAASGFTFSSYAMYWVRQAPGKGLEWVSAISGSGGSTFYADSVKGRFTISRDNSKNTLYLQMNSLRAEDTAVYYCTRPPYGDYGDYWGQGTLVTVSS VL: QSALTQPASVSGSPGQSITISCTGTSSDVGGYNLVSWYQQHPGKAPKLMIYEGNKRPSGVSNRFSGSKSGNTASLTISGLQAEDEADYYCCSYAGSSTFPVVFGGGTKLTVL" value_type=pKd endpoint_result=7.83
